Property: interaction score; scope: individual binders
Target: T1, 4H3172-bN
T1 chain: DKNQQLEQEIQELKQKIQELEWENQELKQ
Assay: two-hybrid library CCNG1;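 note: natural log of median RNA to DNA barcode read ratio; higher means stronger binding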
Keep it simple and answer with nothing but the number.

Look over these answered cases.
DENQQLEQKNQELEQKIQELKWEIQELEQ [4H1449-bN] : -0.588
DKNQQLEQEIQELEQKNQELKWEIQELEQ [4H3129-bN] : -0.806

[Q] Field request: interaction score | item: DENQQLKQENQELEQKIQELKWKIQELKQ [4H1710-bN]
[A] -0.194

[Q] Field request: interaction score | item: DENQQLKQKIQELEQEIQELKWENQELKQ [4H1804-bN]
[A] -0.368

[Q] Field request: interaction score | item: DENQQLEQKIQELKQEIQELKWKNQELEQ [4H1359-bN]
[A] 0.294

[Q] Field request: interaction score | item: DENQQLEQENQELKQEIQELEWKIQELKQ [4H1222-bN]
[A] -0.0903

[Q] Field request: interaction score | item: DENQQLKQEIQELKQENQELKWKIQELEQ [4H1629-bN]
[A] -0.119
